This section presents binders with their documented % of binding in the absence of HGF values.
Target: T1, cMet-Fc fusion protein (extracellular domain of the cMet receptor expressed as an Fc-fusion protein) (human, UniProt P08581 25-932)
T1 construct: extracellular domain; also called soluble cMet-Fc-fusion protein; soluble cMet receptor; not shown: Fc part
T1 sequence (P08581 25-932): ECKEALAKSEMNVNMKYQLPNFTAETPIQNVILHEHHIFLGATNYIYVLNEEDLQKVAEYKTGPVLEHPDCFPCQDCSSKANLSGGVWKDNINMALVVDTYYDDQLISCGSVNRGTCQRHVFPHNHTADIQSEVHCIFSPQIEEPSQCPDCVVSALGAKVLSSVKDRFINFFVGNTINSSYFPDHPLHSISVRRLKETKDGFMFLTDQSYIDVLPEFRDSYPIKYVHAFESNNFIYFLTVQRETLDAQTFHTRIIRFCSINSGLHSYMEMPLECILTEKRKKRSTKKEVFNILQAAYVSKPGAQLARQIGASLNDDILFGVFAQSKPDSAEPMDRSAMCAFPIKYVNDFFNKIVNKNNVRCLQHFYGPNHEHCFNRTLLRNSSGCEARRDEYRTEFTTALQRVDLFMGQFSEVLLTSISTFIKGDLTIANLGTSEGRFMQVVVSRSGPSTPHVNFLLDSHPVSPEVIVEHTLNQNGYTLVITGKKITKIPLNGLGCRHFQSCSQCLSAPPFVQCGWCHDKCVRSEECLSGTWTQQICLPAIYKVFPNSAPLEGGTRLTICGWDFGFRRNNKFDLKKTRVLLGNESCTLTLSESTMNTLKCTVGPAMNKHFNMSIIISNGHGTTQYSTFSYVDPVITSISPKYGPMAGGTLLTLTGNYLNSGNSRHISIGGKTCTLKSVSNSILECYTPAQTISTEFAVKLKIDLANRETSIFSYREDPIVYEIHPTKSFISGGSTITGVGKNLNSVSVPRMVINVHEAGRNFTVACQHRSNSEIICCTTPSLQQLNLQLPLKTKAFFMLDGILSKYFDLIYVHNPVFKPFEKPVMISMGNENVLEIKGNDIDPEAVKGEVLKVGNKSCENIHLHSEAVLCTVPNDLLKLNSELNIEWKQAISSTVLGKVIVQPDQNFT
Assay: phage ELISA on cMet-Fc, competitor HGF 100 ng/mL
readout.label: % of binding in the absence of HGF (%)

binder="AGYWSCAGPPMFMCTWQGT [552-G03 peptide-displaying phage (SEQ ID NO: 079)]" observed_value=101
binder="AGNYFCAGSPSFSCYFMGT [330-C10 peptide-displaying phage (SEQ ID NO: 054)]" observed_value=48
binder="AGEWWCHGPPEFLCYWTGT [331-F01 peptide-displaying phage (SEQ ID NO: 072)]" observed_value=77
binder="AQFMYEKEHYVMSISLPGLWFY [122-D07 peptide-displaying phage (SEQ ID NO: 486)]" observed_value=102
binder="AGWISCAGPPTFACWPGGT [548-F06 peptide-displaying phage (SEQ ID NO: 056)]" observed_value=76
binder="AGWSDCLGPPQFTCVHWGT [552-A01 peptide-displaying phage (SEQ ID NO: 083)]" observed_value=76
binder="AGWFECEFGFWGCNWLGT [437-A09 peptide-displaying phage (SEQ ID NO: 018)]" observed_value=89
